pIC50: −log10 of the molar value.
Dear all, I have gathered published pIC50 values for F1F0-ATPase (Bos taurus); the list follows.

Item under review: "O=C(/N=C(/Nc1cc(F)cc(Cl)c1)N[C@H]1CCCC[C@H]1O)c1ccc(C(F)(F)F)cc1" . Reported pIC50?
> 5.00

Query "CC1(N/C(=N/C(=O)c2ccc(Cl)cc2)Nc2cccc(NS(=O)(=O)CC(F)(F)F)n2)CCC1" next
> 5.00

Check CCOC(=O)NC1CCC(N/C(=N\C(=O)c2cc(C)oc2C(F)(F)F)Nc2ccccc2C(F)(F)F)CC1 (stereo not drawn) too.
> 5.30

And the next one, "CC(C)NC(=NC(=O)c1cccc(C#N)c1)Nc1cc(-c2ccc(Cl)cc2)n[nH]1" ?
> 5.00

Now consider "Cc1oncc1C(=O)/N=C(\Nc1cc(-c2ccc(F)cc2)[nH]n1)NC1CCC1" and answer again.
< 4.80

Can you check "CC(C)(C)N/C(=N/C(=O)c1ccc(F)c(F)c1)N[C@H]1CC[C@H](O)CC1" next?
< 5.00

One more compound: "CCOC(=O)N[C@H]1CC[C@H](N/C(=N\C(=O)c2ccc(F)c(F)c2)NCc2cccc(F)c2F)CC1"
> 5.00

Again, but for "O=C(/N=C(/NCc1ccc(F)cc1)Nc1cccc(O)n1)c1ccc(C(F)(F)F)cc1"
> 5.00

Query "O=C(N=C(Nc1cc(-c2ccc(Cl)cc2)n[nH]1)NC1CCC1)c1ccc(F)c(F)c1" next
> 5.00

Check "O=C(/N=C(/NCc1ccc(Cl)cc1F)Nc1cccc(NS(=O)(=O)c2cccnc2)n1)c1ccc(Cl)cc1" too.
> 5.00

Please do the same for "CSc1ccccc1N/C(=N\C(=O)c1cn(C)nc1C(F)(F)F)Nc1cc(-c2ccc(O)cc2F)n[nH]1" as well.
4.80 to 5.30

Please give the result for "Cn1cc(C(=O)/N=C(/NCC(C)(C)C)Nc2cc(-c3ccc(O)cc3F)[nH]n2)c(C(F)(F)F)n1" too.
< 4.80

// query: "O=C(/N=C(/NCc1ccc(F)c(F)c1)Nc1cccc(O)n1)c1ccc(C(F)(F)F)cc1"
> 5.00

Follow-up item: "O=C(/N=C(\Nc1cc(C(F)(F)F)n[nH]1)NC1CCOCC1)c1ccc(Cl)c(F)c1"
> 5.00

// repeat for "O=C(/N=C(/NCc1c(F)cc(F)cc1F)Nc1cccc(O)n1)c1ccc(C(F)(F)F)cc1" and report
> 5.00

* * *

Ok so here's the combined literature set: IC50 for F1F0-ATPase (Bos taurus).

Quick check: IC50 of "Cc1cc(C(=O)/N=C(/NCc2ccc(F)cc2Cl)Nc2cc(-c3ccc(F)cc3)n[nH]2)n(C)n1" ?
< 5 µM

"CC(C)NC(=NC(=O)c1ccc(F)c(F)c1)Nc1cc(-c2ccc(Cl)cc2)n[nH]1" ?
< 10 µM

"Cc1cc(-c2cc(N/C(=N\C(=O)c3ccc(C(F)(F)F)cc3)NC(C)(C)C)n[nH]2)ccc1F" ?
< 10 µM

One more compound: "O=C(/N=C(/NCc1cccc(F)c1F)N[C@H]1CC[C@H](O)CC1)c1ccc(F)c(F)c1"
> 10 µM

Next compound: "O=C(/N=C(/NCc1ccccc1C(F)(F)F)Nc1cccc(O)n1)c1ccc(C(F)(F)F)cc1"
< 10 µM

Another compound to check: "CCn1nc(C)cc1C(=O)/N=C(\Nc1cc(-c2ccc(F)cc2)n[nH]1)NC(C)C"
< 5 µM

Entry to check: COCC(C)N/C(=N/C(=O)c1ccc(C(F)(F)F)cc1)Nc1cc(C(F)(F)F)n[nH]1 (stereo not drawn)
< 10 µM

And what about the compound "Cn1cc(C(=O)N=C(Nc2cc(-c3ccc(O)cc3F)n[nH]2)NC2CCCC2)c(C(F)(F)F)n1" ?
> 16 µM

Next entry: "O=C(/N=C(\Nc1cccc(O)n1)NC1CCCCCC1)c1ccc(C(F)(F)F)cc1"
< 10 µM

Also check "CC(C)(C)CNC(=NC(=O)c1ccc(F)c(F)c1)Nc1n[nH]c2cccnc12"
> 16 µM

Next record, please: "Cc1noc(C)c1S(=O)(=O)Nc1cccc(N/C(=N\C(=O)c2ccc(Cl)cc2)NCc2ccc(Cl)cc2F)n1"
< 10 µM

Also, O=C(/N=C(/Nc1cc(F)cc(Cl)c1)NC1CCC(NC(=O)c2ccccc2)CC1)c1ccc(Cl)cc1 (stereo not drawn) please.
< 10 µM

Could you do the same for CCC(C)N/C(=N/C(=O)c1ccc(F)cc1)Nc1cc(-c2ccc(F)cc2)n[nH]1 (stereo not drawn) , please?
< 10 µM

Now the compound "O=C(/N=C(/Nc1cccc(Cl)c1)N[C@H]1CC[C@H](Nc2ccccn2)CC1)c1ccc(F)c(F)c1"
< 10 µM

Would you kindly repeat that for "CC(C)(C)CN/C(=N/C(=O)c1ccc(F)c(F)c1)Nc1cc(C(F)F)[nH]n1" ?
< 10 µM

What do you have for COCC(C)NC(=NC(=O)c1ccc(F)cc1)Nc1cc(-c2cc(F)cc(F)c2)n[nH]1 (stereo not drawn) ?
< 10 µM

Likewise for "O=C(/N=C(\Nc1n[nH]c2cc(C(F)(F)F)ccc12)NC1CCC1)c1ccc(N2CCOCC2)nc1" ?
< 5 µM

Lookup CCOC(=O)NC1CCC(N/C(=N\C(=O)c2cc(C)oc2C(F)(F)F)NCc2ccc(F)cc2Cl)CC1 (stereo not drawn)
< 5 µM

Now try "Cn1cc(C(=O)/N=C(/Nc2cc(F)cc(F)c2)Nc2cc(-c3ccc(O)c(F)c3)n[nH]2)c(C(F)(F)F)n1" .
< 5 µM

Here is the next compound: "Cn1cc(C(=O)/N=C(/Nc2cc(-c3ccc(O)cc3F)n[nH]2)Nc2ccccc2Cl)c(C(F)(F)F)n1"
5 to 16 µM

Similarly, "O=C(/N=C(/NCc1ccc(F)cc1Cl)N[C@H]1CC[C@H](Nc2ncccn2)CC1)c1ccc(F)c(F)c1" ?
< 10 µM

Try this compound too: CC1(CNC(=NC(=O)c2ccc(F)c(F)c2)Nc2cc(-c3ccc(Cl)cc3)n[nH]2)CCCO1 (stereo not drawn)
< 10 µM

What do we get for "CC(C)(C)NC(=NC(=O)c1cccc(C#N)c1)Nc1cc(-c2ccc(F)cc2)n[nH]1" ?
< 10 µM

Repeat with COCC(C)NC(=NC(=O)c1cccc(F)c1)Nc1cc(-c2ccc(F)cc2)n[nH]1 (stereo not drawn)
< 10 µM

Do the same for "Cc1cc(C(=O)N=C(Nc2cc(-c3ccc(F)cc3)[nH]n2)NC(C)(C)C)no1" please
5 to 16 µM

Note, next up: "Cc1cc(F)ccc1N/C(=N/C(=O)c1cn(C)nc1C(F)(F)F)Nc1cc(-c2ccc(O)c(F)c2)n[nH]1"
< 5 µM

And then "O=C(/N=C(/NCC(F)(F)F)Nc1cccc(NS(=O)(=O)CC(F)(F)F)n1)c1ccc(Cl)cc1" , what is it?
< 10 µM

Also, "Cc1ccccc1N/C(=N/C(=O)c1cn(C)nc1C(F)(F)F)Nc1cc(-c2ccc(O)c(F)c2)n[nH]1" please.
< 5 µM

Request: O=C(/N=C(/NCC1CCOC1)Nc1cc(C(F)(F)F)[nH]n1)c1ccc(F)cc1 (stereo not drawn)
< 10 µM

Could you do the same for "CC(C)CN/C(=N/C(=O)c1ccc(C(F)(F)F)cc1)Nc1cc(-c2ccc(Cl)cc2)n[nH]1" , please?
< 10 µM

* * *

pIC50: −log10 of the molar value.
This section presents pIC50 values reported for UniProtKB P13621 in the literature.

Record request: pIC50 value, item "Cc1ccc(-c2cc(N/C(=N\C(=O)c3cnoc3C)NC3CCCC3)n[nH]2)cc1F"
> 5.30

And what about the compound "O=C(/N=C(/NCc1ccc(C(F)(F)F)cc1)Nc1cccc(O)n1)c1ccc(C(F)(F)F)cc1" ?
> 5.00

Same question for "O=C(/N=C(/Nc1cc(F)cc(Cl)c1)N[C@H]1CC[C@@H](C(=O)O)CC1)c1ccc(F)c(F)c1" please.
< 5.00

Now this one: "COc1cccc(CN/C(=N/C(=O)c2ccn(C)n2)Nc2cc(-c3ccc(F)cc3)n[nH]2)c1"
4.80 to 5.30

* * *

Multi-source literature compilation: IC50 on UniProt:P13621.

Reported IC50 for UniProt:P13621, given CCC(C)N/C(=N/C(=O)c1cc(C)oc1C)Nc1cc(-c2ccc(F)cc2)n[nH]1 (stereo not drawn) ?
5 to 16 µM

Now this one: "O=C(/N=C(/NCc1ccc(Cl)cc1F)N[C@H]1CC[C@H](O)CC1)c1ccc(F)c(F)c1"
> 10 µM

Lookup "O=C(/N=C(/Nc1cc(F)cc(Cl)c1)Nc1cc(C(F)F)[nH]n1)c1ccc(F)c(F)c1"
< 10 µM

Ok, now "O=C(/N=C(/NCc1ccc(F)cc1Cl)Nc1cc(-c2ccc(F)cc2)n[nH]1)c1ccc(C(F)(F)F)cc1"
< 10 µM

// query: CCOC(=O)NC1CCC(N/C(=N\C(=O)c2cc(C)oc2C(F)(F)F)Nc2cc(F)cc(Cl)c2)CC1 (stereo not drawn)
< 5 µM

Do the same for COCC(C)N/C(=N/C(=O)c1ccc(Cl)cc1)Nc1cc(C(F)(F)F)n[nH]1 (stereo not drawn) please
< 10 µM

Param item: "CC(C)(C)N/C(=N/C(=O)c1ccc(F)c(F)c1)Nc1cccc(NS(=O)(=O)CC(F)(F)F)n1"
< 10 µM

// repeat for "O=C(/N=C(\Nc1cc(-c2ccc(F)cc2)n[nH]1)NC1CCC(F)(F)CC1)c1ccc(F)cc1" and report
< 10 µM

Another: "CC(C)CN/C(=N/C(=O)c1ccc(F)c(F)c1)Nc1[nH]nc(-c2ccc(Cl)cc2)c1F"
> 10 µM

Another: "CC(C)(C)N/C(=N/C(=O)c1ccc(C(F)(F)F)cc1)Nc1cccc(NS(=O)(=O)CC(F)(F)F)n1"
< 10 µM

Would you mind doing "Cc1nc(C(=O)/N=C(\Nc2cc(-c3ccc(F)cc3)n[nH]2)NC(C)(C)C)c(C)o1" as well?
> 16 µM

Queued: "O=C(/N=C(/Nc1cccc(C(F)(F)F)c1)Nc1cccc(O)n1)c1ccc(F)c(F)c1"
< 10 µM

Param item: CCOCC(C)NC(=NC(=O)c1ccc(F)c(F)c1)Nc1cc(-c2ccc(F)cc2)n[nH]1 (stereo not drawn)
< 10 µM

Now consider "CC(C)CN/C(=N/C(=O)c1ccc(F)c(F)c1)Nc1cc(-c2ccc(CO)cc2)n[nH]1" and answer again.
> 10 µM

Next entry: "O=C(/N=C(/Nc1cccc(C(F)(F)F)c1)N[C@H]1CC[C@H](O)CC1)c1ccc(F)c(F)c1"
< 10 µM
